Where these numbers come from: ChEMBL document CHEMBL3227921

# target of assay: Oxytocin receptor (Rattus norvegicus)
# Sequence (P70536 whole entry): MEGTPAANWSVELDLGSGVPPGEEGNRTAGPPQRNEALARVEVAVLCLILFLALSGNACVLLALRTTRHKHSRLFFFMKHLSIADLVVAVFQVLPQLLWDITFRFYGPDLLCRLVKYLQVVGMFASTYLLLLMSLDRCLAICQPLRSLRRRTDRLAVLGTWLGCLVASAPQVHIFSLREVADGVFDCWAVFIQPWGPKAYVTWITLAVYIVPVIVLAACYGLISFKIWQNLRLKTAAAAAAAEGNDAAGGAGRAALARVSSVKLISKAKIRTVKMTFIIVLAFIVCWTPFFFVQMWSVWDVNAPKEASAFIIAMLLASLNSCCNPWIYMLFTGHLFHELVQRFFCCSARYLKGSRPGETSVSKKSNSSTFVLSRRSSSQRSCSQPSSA
# test method notes: Antagonist activity at oxytocin receptor in rat uterus pretreated with diethylstilbestrol compound treated 1 min prior to oxytocin addition in presence of 0.5 mM Mg2+
# Type: tissue-based
# conditions used: read-out: pA2 (converted)
Numbered stars: 1 amine (or outer) side, 2 acyl side, 3 side chain; on linkers, the order of the positions; unused ones are H or OH. Bridge positions count the residues as written; N and C are the ends. Peptide text beside a SMILES is read from it. X1 = O=C(CC1(S[*:2])CCCCC1)[*:1]; X2 = CC(C)(CC(=O)[*:1])S[*:2]
measure name: Kb (nM)
Please respond with the number in nM and leave the unit unwritten.

// known answers, use as guide
CC[C@H](C)[C@@H]1NC(=O)[C@H](Cc2ccc(O)cc2)NC(=O)CC2(CCCCC2)SSC[C@@H](C(=O)N2CCC[C@H]2C(=O)N[C@@H](CC(C)C)C(=O)NCC(N)=O)NC(=O)[C@H](CC(N)=O)NC(=O)[C@H](CCC(N)=O)NC1=O (YIQNCPLG-NH2; linker N-5 via X1); 70.8
CC[C@H](C)[C@@H]1NC(=O)[C@H](Cc2ccc(OC)cc2)NC(=O)CC(C)(C)SSC[C@@H](C(=O)N2CCC[C@H]2C(=O)N[C@@H](CC(C)C)C(=O)NCC(N)=O)NC(=O)[C@H](CC(N)=O)NC(=O)[C@H](CCC(N)=O)NC1=O (Y(Me)IQNCPLG-NH2; linker N-5 via X2); 15.8

Now examine the next entry.
Q. Could you share which Kb value was measured for CC[C@H](C)[C@@H]1NC(=O)[C@H](Cc2ccc(O)cc2)NC(=O)CC(C)(C)SSC[C@@H](C(=O)N2CCC[C@H]2C(=O)N[C@@H](CC(C)C)C(=O)NCC(N)=O)NC(=O)[C@H](CC(N)=O)NC(=O)[C@H]([C@@H](C)O)NC1=O (YITNCPLG-NH2; linker N-5 via X2) ?
A. 589
